Let's look at some molecules and their measured Antibacterial Activity (MIC).
# Tested on: Staphylococcus epidermidis ATCC 12228
# METHOD_SUMMARY: MIC, two-fold dilution method, Staphylococcus epidermidis ATCC 12228
# Format: cell-based
# STATED_CONDITIONS: Muller Hinton Broth, 10^6 CFU per ml, 37° C., 18 to 20 hours
Give just the numeric value; µg/mL need not be written.

>>> experimental_value("C#CCO/N=C(\\C(=O)NC1C(=O)N2C(C(=O)[O-])=C(CSc3cc[n+](CC)c4cc(N5CCNCC5C)c(F)cc34)CS[C@H]12)c1csc(N)n1 (some centres unmarked)")
0.78

Q: Reported Antibacterial Activity (MIC) for Cc1cn(-c2cc3c(cc2F)c(SCC2=C(C(=O)[O-])N4C(=O)C(NC(=O)/C(=N\OC(C)(C)C(=O)O)c5csc(N)n5)[C@H]4SC2)cc[n+]3C2CC2)cn1 (some centres unmarked) : what is it?
Ans: 1.56

Q: Reported Antibacterial Activity (MIC) for CO/N=C(\C(=O)NC1C(=O)N2C(C(=O)[O-])=C(CSc3cc[n+](C4CC4)c4cc(N5CCNCC5C)c(F)cc34)CS[C@H]12)c1csc(N)n1 (some centres unmarked) : what is it?
Ans: 0.2

Q: Reported Antibacterial Activity (MIC) for C=CCO/N=C(\C(=O)NC1C(=O)N2C(C(=O)[O-])=C(CSc3cc[n+](C4CC4)c4cc(N5CCNCC5C)c(F)cc34)CS[C@H]12)c1csc(N)n1 (some centres unmarked) : what is it?
Ans: 0.2

---

# System: Staphylococcus epidermidis ATCC 12228
METRIC_NAME: MIC (µg/mL)
Give just the numeric value; µg/mL need not be written.

Q: Reported MIC for CO/N=C(\C(=O)N[C@@H]1C(=O)N2C(C(=O)O)=C(COC(C)=O)CS[C@H]12)c1csc(N)n1 [CTX, Cefotaxime, reference compound] : what is it?
Ans: 0.78

Q: Reported MIC for C=CCO/N=C(\C(=O)NC1C(=O)N2C(C(=O)[O-])=C(CSc3cc[n+](C)c4cc(N5CCN(C)CC5)c(F)cc34)CSC12)c1csc(N)n1 (stereo not drawn) [Compound I-22] : what is it?
Ans: 0.1

Q: Reported MIC for C=CC[n+]1ccc(SCC2=C(C(=O)[O-])N3C(=O)C(NC(=O)/C(=N\OC)c4csc(N)n4)C3SC2)c2cc(F)c(N3CCN(CC)CC3)cc21 (stereo not drawn) [Compound I-15] : what is it?
Ans: 0.78

---

For Staphylococcus epidermidis ATCC 12228, measured MIC is reported for the entries below.
Give just the numeric value; µg/mL need not be written.

Solved entries:
>>> experimental_value("C=CCO/N=C(\\C(=O)NC1C(=O)N2C(C(=O)[O-])=C(CSc3cc[n+](C4CC4)c4cc(N5CCN(C)CC5)c(F)cc34)CSC12)c1csc(N)n1 (centres unmarked) [Compound I-26]")
1.56
>>> experimental_value("CO/N=C(\\C(=O)NC1C(=O)N2C(C(=O)[O-])=C(CSc3cc[n+](C)c4cc(N5CCNCC5)c(F)cc34)CSC12)c1csc(N)n1 (centres unmarked) [Compound I-1]")
0.1
>>> experimental_value("CCN1CCN(c2cc3c(cc2F)c(SCC2=C(C(=O)[O-])N4C(=O)C(NC(=O)/C(=N\\OC)c5csc(N)n5)C4SC2)cc[n+]3CC)CC1 (centres unmarked) [Compound I-11]")
0.2

Switching to the query record.
Q: Reported MIC for Staphylococcus epidermidis ATCC 12228, given C=CC[n+]1ccc(SCC2=C(C(=O)[O-])N3C(=O)C(NC(=O)/C(=N\OC)c4csc(N)n4)[C@H]3SC2)c2cc(F)c(N3CCNCC3)cc21 (some centres unmarked) [Compound I-13] ?
Ans: 1.56

---

# System: Klebsiella pneumoniae ATCC 10031
# METHOD_SUMMARY: MIC, two-fold dilution method, Klebsiella pneumoniae ATCC 10031
# Type: cell-based
# STATED_CONDITIONS: Muller Hinton Broth, 10^6 CFU per ml, 37° C., 18 to 20 hours
METRIC_NAME: Antibacterial Activity (MIC) (µg/mL)
Give just the numeric value; µg/mL need not be written.

>>> experimental_value("Cc1cn(-c2cc3c(cc2F)c(SCC2=C(C(=O)[O-])N4C(=O)C(NC(=O)/C(=N\\OC(C)(C)C(=O)O)c5csc(N)n5)[C@H]4SC2)cc[n+]3C2CC2)cn1 (stereo partly shown) [Compound I-68]")
0.78

Q: Reported Antibacterial Activity (MIC) for CO/N=C(\C(=O)NC1C(=O)N2C(C(=O)[O-])=C(CSc3cc[n+](C4CC4)c4cc(N5CCNCC5C)c(F)cc34)CS[C@H]12)c1csc(N)n1 (stereo partly shown) [Compound I-8] : what is it?
Ans: 0.05

Q: Reported Antibacterial Activity (MIC) for CC[n+]1ccc(SCC2=C(C(=O)[O-])N3C(=O)C(NC(=O)/C(=N\OC)c4csc(N)n4)[C@H]3SC2)c2cc(F)c(N3CCNCC3C)cc21 (stereo partly shown) [Compound I-12] : what is it?
Ans: 0.39

Q: Reported Antibacterial Activity (MIC) for CO/N=C(\C(=O)NC1C(=O)N2C(C(=O)[O-])=C(CSc3cc[n+](C4CC4)c4cc(-n5cnc(C)c5)c(F)cc34)CSC12)c1csc(N)n1 (stereo not shown) [Compound I-20] : what is it?
Ans: 0.1

Q: Reported Antibacterial Activity (MIC) for CO/N=C(\C(=O)NC1C(=O)N2C(C(=O)[O-])=C(CSc3cc[n+](C)c4cc(N5CCNCC5C)c(F)cc34)CSC12)c1csc(N)n1 (stereo not shown) [Compound I-4] : what is it?
Ans: 0.1

Q: Reported Antibacterial Activity (MIC) for C=CCO/N=C(\C(=O)NC1C(=O)N2C(C(=O)[O-])=C(CSc3cc[n+](CC)c4cc(N5CCNCC5C)c(F)cc34)CS[C@H]12)c1csc(N)n1 (stereo partly shown) [Compound I-32] : what is it?
Ans: 0.39

Q: Reported Antibacterial Activity (MIC) for CC[n+]1ccc(SCC2=C(C(=O)[O-])N3C(=O)C(NC(=O)/C(=N\OC(C)(C)C(=O)O)c4csc(N)n4)[C@H]3SC2)c2cc(F)c(N3CCNCC3)cc21 (stereo partly shown) [Compound I-53] : what is it?
Ans: 1.56

---

# System: Staphylococcus epidermidis ATCC 12228
METRIC_NAME: MIC (µg/mL)
Give just the numeric value; µg/mL need not be written.

Solved entries:
>>> experimental_value("C=CCO/N=C(\\C(=O)NC1C(=O)N2C(C(=O)[O-])=C(CSc3cc[n+](CC)c4cc(N5CCN(C)CC5)c(F)cc34)CSC12)c1csc(N)n1 (centres unmarked) [Compound I-30]")
0.78
>>> experimental_value("C=CCO/N=C(\\C(=O)NC1C(=O)N2C(C(=O)[O-])=C(CSc3cc[n+](C)c4cc(N5CCN(CC)CC5)c(F)cc34)CSC12)c1csc(N)n1 (centres unmarked) [Compound I-23]")
0.1
>>> experimental_value("C#CCO/N=C(\\C(=O)NC1C(=O)N2C(C(=O)[O-])=C(CSc3cc[n+](CC)c4cc(N5CCNCC5)c(F)cc34)CS[C@H]12)c1csc(N)n1 (some centres unmarked) [Compound I-45]")
0.78
>>> experimental_value("C=CCO/N=C(\\C(=O)NC1C(=O)N2C(C(=O)[O-])=C(CSc3cc[n+](C4CC4)c4cc(N5CCN(CC)CC5)c(F)cc34)CSC12)c1csc(N)n1 (centres unmarked) [Compound I-27]")
0.2

Q: Reported MIC for Staphylococcus epidermidis ATCC 12228, given CN1CCN(c2cc3c(cc2F)c(SCC2=C(C(=O)[O-])N4C(=O)C(NC(=O)/C(=N\OC(C)(C)C(=O)O)c5csc(N)n5)C4SC2)cc[n+]3C)CC1 (centres unmarked) [Compound I-54] ?
Ans: 3.13

Q: Reported MIC for Staphylococcus epidermidis ATCC 12228, given C#CCO/N=C(\C(=O)NC1C(=O)N2C(C(=O)[O-])=C(CSc3cc[n+](C)c4cc(N5CCN(C)CC5)c(F)cc34)CSC12)c1csc(N)n1 (centres unmarked) [Compound I-38] ?
Ans: 0.39

Q: Reported MIC for Staphylococcus epidermidis ATCC 12228, given C#CCO/N=C(\C(=O)NC1C(=O)N2C(C(=O)[O-])=C(CSc3cc[n+](CC=C)c4cc(N5CCNCC5)c(F)cc34)CS[C@H]12)c1csc(N)n1 (some centres unmarked) [Compound I-49] ?
Ans: 1.56

Q: Reported MIC for Staphylococcus epidermidis ATCC 12228, given CC(C)(O/N=C(\C(=O)NC1C(=O)N2C(C(=O)[O-])=C(CSc3cc[n+](C4CC4)c4cc(N5CCNCC5)c(F)cc34)CS[C@H]12)c1csc(N)n1)C(=O)O (some centres unmarked) [Compound I-57] ?
Ans: 6.25

Q: Reported MIC for Staphylococcus epidermidis ATCC 12228, given CCN1CCN(c2cc3c(cc2F)c(SCC2=C(C(=O)[O-])N4C(=O)C(NC(=O)/C(=N\OC)c5csc(N)n5)C4SC2)cc[n+]3C)CC1 (centres unmarked) [Compound I-3] ?
Ans: 0.1

Q: Reported MIC for Staphylococcus epidermidis ATCC 12228, given C#CCO/N=C(\C(=O)NC1C(=O)N2C(C(=O)[O-])=C(CSc3cc[n+](C4CC4)c4cc(N5CCN(C)CC5)c(F)cc34)CSC12)c1csc(N)n1 (centres unmarked) [Compound I-42] ?
Ans: 0.78

Q: Reported MIC for Staphylococcus epidermidis ATCC 12228, given C#CCO/N=C(\C(=O)NC1C(=O)N2C(C(=O)[O-])=C(CSc3cc[n+](CC=C)c4cc(N5CCN(CC)CC5)c(F)cc34)CSC12)c1csc(N)n1 (centres unmarked) [Compound I-51] ?
Ans: 1.56

These measurements were taken from patent US5663331A.
